Field: minimal effective dose. Provide a value for each of the molecules that follow.
Test system: Mus musculus
Test: Antiamnesic activity against scopolamine-induced amnesia in ip dosed mouse by passive-avoidance test
Assay type: functional
Conditions: read-out: MED
Lab book: enter the figure in mg/kg, no units written.

If you can, please state the reported minimal effective dose value of `CCC(=O)N1CCN(C(C)=O)CC1` .
10

If you can, please state the reported minimal effective dose value of `CCC(=O)N1CCCN(C(=O)c2ccccc2)C1` .
1

If you can, please state the reported minimal effective dose value of NC(=O)CN1CCCC1=O [PIRACETAM] .
30

If you can, please state the reported minimal effective dose value of `CCC(=O)N1CCCN(S(=O)(=O)c2ccc(F)cc2)CC1` .
1

If you can, please state the reported minimal effective dose value of CCC(=O)N1CCN(C(=O)c2ccccc2)CC1 [SUNIFIRAM] .
0.001

If you can, please state the reported minimal effective dose value of `CC(=O)N1CCN(S(=O)(=O)c2ccc(F)cc2)CC1` .
0.01

If you can, please state the reported minimal effective dose value of `CC(=O)N1CCN(C(=O)c2ccccc2)C1` .
1

If you can, please state the reported minimal effective dose value of CC(=O)NC1CCN(S(=O)(=O)c2ccc(F)cc2)CC1 [SAPUNIFIRAM] .
0.01

If you can, please state the reported minimal effective dose value of `CCC(=O)N1CCN(C(=O)Cc2ccccc2)CC1` .
1

If you can, please state the reported minimal effective dose value of `CCC(=O)N1CCCN(C(=O)c2ccccc2)CC1` .
0.1

If you can, please state the reported minimal effective dose value of `CC(=O)N1CCCN(C(=O)c2ccccc2)C1` .
1

====

Field: minimal effective dose. Provide a value for each of the molecules that follow.
Tested on: Mus musculus
Test: Antiamnesic activity against scopolamine-induced amnesia in ip dosed mouse by passive-avoidance test
Assay type: functional
Settings: read-out: MED
Lab book: enter the figure in mg/kg, no units written.

If you can, please state the reported minimal effective dose value of `CCC(=O)N1CCCN(S(=O)(=O)c2ccc(F)cc2)C1` .
1

If you can, please state the reported minimal effective dose value of `CNC(=O)C1CCN(S(=O)(=O)c2ccc(F)cc2)CC1` .
0.1

If you can, please state the reported minimal effective dose value of `CCC(=O)NC1CCN(C(C)=O)CC1` .
10

If you can, please state the reported minimal effective dose value of `CCC(=O)N1CCN(S(=O)(=O)c2ccc(F)cc2)C1` .
1

If you can, please state the reported minimal effective dose value of `CCC(=O)N1CCN(C(=O)Oc2ccccc2)CC1` .
10

If you can, please state the reported minimal effective dose value of `CC(=O)NC(=O)C1CCN(S(=O)(=O)c2ccc(F)cc2)CC1` .
1

If you can, please state the reported minimal effective dose value of `CC(=O)N1CCCN(C(=O)Cc2ccccc2)CC1` .
0.01

If you can, please state the reported minimal effective dose value of `CC(=O)N1CCCN(S(=O)(=O)c2ccc(F)cc2)C1` .
1

If you can, please state the reported minimal effective dose value of `CCC(=O)N1CCN(C(=O)c2ccccc2)C1` .
1

If you can, please state the reported minimal effective dose value of `CCNC(=O)C1CCN(S(=O)(=O)c2ccc(F)cc2)CC1` .
1

====

Field: minimal effective dose. Provide a value for each of the molecules that follow.
Test system: Mus musculus
Test: Antiamnesic activity against scopolamine-induced amnesia in ip dosed mouse by passive-avoidance test
Format: functional
Conditions: read-out: MED
Lab book: enter the figure in mg/kg, no units written.

If you can, please state the reported minimal effective dose value of `CCCS(=O)(=O)N1CCN(C(=O)CC)CC1` .
1

If you can, please state the reported minimal effective dose value of `CCC(=O)N1CCN(S(=O)(=O)c2ccc(F)cc2)CC1` .
0.01

If you can, please state the reported minimal effective dose value of `CC(=O)N1CCCN(S(=O)(=O)c2ccc(F)cc2)CC1` .
1

If you can, please state the reported minimal effective dose value of `CCCS(=O)(=O)N1CCN(C(C)=O)C1` .
10

If you can, please state the reported minimal effective dose value of `CC(=O)N1CCCN(C(=O)c2ccccc2)CC1` .
0.01

====

Field: minimal effective dose. Provide a value for each of the compounds that follow.
Tested on: Mus musculus
Experiment: Antiamnesic activity against scopolamine-induced amnesia in ip dosed mouse by passive-avoidance test
Assay type: functional
Settings: read-out: MED
Lab book: enter the figure in mg/kg, no units written.

If you can, please state the reported minimal effective dose value of `CC(=O)N1CCN(S(=O)(=O)c2ccc(F)cc2)C1` .
1

If you can, please state the reported minimal effective dose value of `CCCS(=O)(=O)N1CCCN(C(C)=O)C1` .
1

If you can, please state the reported minimal effective dose value of `CC(=O)N1CCN(C(=O)c2ccccc2)CC1` .
10

If you can, please state the reported minimal effective dose value of `CCCS(=O)(=O)N1CCN(C(C)=O)CC1` .
0.1
